condition_details: 318.15 K; 25000 kPa; Liquid; Vibrating tube method
measured_property: mass density (kg/m3)

>>> print(df.to_string())
                                   compound  measured_property  test_result
0              CCCCCOCCCCC [dipentyl ether]       mass density        783.5
1  CC(C)CCOCCC(C)C [di-(3-methylbutyl) ether]       mass density       776.38
2               CCCCOC [butyl methyl ether]       mass density       747.69
3           CC(C)OC(C)C [diisopropyl ether]       mass density       728.67
4               CCCCOCC [butyl ethyl ether]       mass density       751.96
5                  CCCOCCC [dipropyl ether]       mass density       750.04
6    CCOC(C)(C)C [2-ethoxy-2-methylpropane]       mass density       744.39
7    COC(C)(C)C [2-methoxy-2-methylpropane]       mass density       743.91

* * *

condition_details: 288.15 K; 25000 kPa; Liquid; Vibrating tube method
measured_property: mass density (kg/m3)

                                   compound  measured_property  test_result
0               CCCCOC [butyl methyl ether]       mass density       773.58
1              CCCCCOCCCCC [dipentyl ether]       mass density       804.81
2    CCOC(C)(C)C [2-ethoxy-2-methylpropane]       mass density       770.23
3           CC(C)OC(C)C [diisopropyl ether]       mass density       754.61
4    COC(C)(C)C [2-methoxy-2-methylpropane]       mass density       770.15
5                  CCCOCCC [dipropyl ether]       mass density       775.22
6               CCCCOCC [butyl ethyl ether]       mass density        776.9
7  CC(C)CCOCCC(C)C [di-(3-methylbutyl) ether]       mass density       797.65

* * *

condition_details: 308.15 K; 65000 kPa; Liquid; Vibrating tube method
measured_property: mass density (kg/m3)

               smi  measured_property  unit_tag  test_result
0          CCCCOCC       mass density     kg/m3       789.36
1      CCOC(C)(C)C       mass density     kg/m3       784.29
2  CC(C)CCOCCC(C)C       mass density     kg/m3       808.94
3      CCCCCOCCCCC       mass density     kg/m3       814.95
4           CCCCOC       mass density     kg/m3       786.36
5      CC(C)OC(C)C       mass density     kg/m3       769.97
6          CCCOCCC       mass density     kg/m3       787.86
7       COC(C)(C)C       mass density     kg/m3       784.04

* * *

condition_details: 303.15 K; 100 kPa; Liquid; Vibrating tube method
measured_property: mass density (kg/m3)

In [3]: df
Out[3]:
               smi  test_result
0           CCCCOC       735.68
1      CCCCCOCCCCC        774.9
2       COC(C)(C)C       730.04
3      CCOC(C)(C)C       730.67
4  CC(C)CCOCCC(C)C       766.54
5          CCCCOCC        740.3
6      CC(C)OC(C)C       713.03
7          CCCOCCC       737.77

* * *

condition_details: 323.15 K; 10000 kPa; Liquid; Vibrating tube method
measured_property: mass density (kg/m3)

>>> print(df.to_string())
               smi  test_result
0      CCOC(C)(C)C       723.13
1       COC(C)(C)C       722.39
2      CCCCCOCCCCC       767.94
3           CCCCOC       727.49
4  CC(C)CCOCCC(C)C        760.1
5      CC(C)OC(C)C       706.46
6          CCCCOCC       732.59
7          CCCOCCC       730.31

* * *

condition_details: 323.15 K; 25000 kPa; Liquid; Vibrating tube method
measured_property: mass density (kg/m3)

>>> print(df.to_string())
               smi  measured_property  test_result
0          CCCOCCC       mass density       745.84
1      CCOC(C)(C)C       mass density       740.06
2      CCCCCOCCCCC       mass density       779.95
3           CCCCOC       mass density       743.37
4      CC(C)OC(C)C       mass density       724.38
5       COC(C)(C)C       mass density       739.51
6          CCCCOCC       mass density       747.78
7  CC(C)CCOCCC(C)C       mass density       772.87

* * *

condition_details: 328.15 K; 5000 kPa; Liquid; Vibrating tube method
measured_property: mass density (kg/m3)

>>> df
               smi  measured_property  test_result
0          CCCCOCC       mass density       721.95
1      CCCCCOCCCCC       mass density       759.51
2      CCOC(C)(C)C       mass density       711.38
3          CCCOCCC       mass density       719.28
4      CC(C)OC(C)C       mass density       694.18
5           CCCCOC       mass density       716.32
6  CC(C)CCOCCC(C)C       mass density       751.35

* * *

condition_details: 298.15 K; 50000 kPa; Liquid; Vibrating tube method
measured_property: mass density (kg/m3)

                                   compound  measured_property  unit_tag  test_result
0  CC(C)CCOCCC(C)C [di-(3-methylbutyl) ether]       mass density     kg/m3       806.62
1    CCOC(C)(C)C [2-ethoxy-2-methylpropane]       mass density     kg/m3       781.37
2              CCCCCOCCCCC [dipentyl ether]       mass density     kg/m3       813.04
3           CC(C)OC(C)C [diisopropyl ether]       mass density     kg/m3        766.6
4               CCCCOC [butyl methyl ether]       mass density     kg/m3       783.87
5                  CCCOCCC [dipropyl ether]       mass density     kg/m3       785.42
6    COC(C)(C)C [2-methoxy-2-methylpropane]       mass density     kg/m3       781.23
7               CCCCOCC [butyl ethyl ether]       mass density     kg/m3       786.91

* * *

condition_details: 308.15 K; 45000 kPa; Liquid; Vibrating tube method
measured_property: mass density (kg/m3)

>>> print(df.to_string())
                                   molecule  measured_property  test_result
0           CC(C)OC(C)C [diisopropyl ether]       mass density       755.05
1                  CCCOCCC [dipropyl ether]       mass density       774.31
2               CCCCOC [butyl methyl ether]       mass density       772.53
3    CCOC(C)(C)C [2-ethoxy-2-methylpropane]       mass density       769.97
4               CCCCOCC [butyl ethyl ether]       mass density       775.95
5  CC(C)CCOCCC(C)C [di-(3-methylbutyl) ether]       mass density       797.07
6              CCCCCOCCCCC [dipentyl ether]       mass density       803.56
7    COC(C)(C)C [2-methoxy-2-methylpropane]       mass density       769.71
